B1: FAM107A (parent)
chain: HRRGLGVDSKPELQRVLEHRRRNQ

variants of: B1; assay: protein stability index of a GFP-peptide fusion (GPS, HEK-293T) (PSI 1-6); higher = more stable; conditions: c terminus: a fixed tail appended;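 further: lentivirally expressed fusions sorted by FACS into six bins by GFP to DsRed ratio, PSI derived from sequencing read proportions per bin multiplied by bin number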
met means recorded protein stability index is 4 or above; not met means it is below 4.

>>> label("V16P")
"met"
>>> label("G4Y")
"met"
>>> label("S9H")
"met"

Query: Check the entry `R15P` : does protein stability index equal or exceed 4?
Response: met
